The origin of these recorded values is ChEMBL document CHEMBL3102727.

- target_or_system: P2Y purinoceptor 1 (Homo sapiens, UniProt P47900)
- Sequence (P47900 whole entry): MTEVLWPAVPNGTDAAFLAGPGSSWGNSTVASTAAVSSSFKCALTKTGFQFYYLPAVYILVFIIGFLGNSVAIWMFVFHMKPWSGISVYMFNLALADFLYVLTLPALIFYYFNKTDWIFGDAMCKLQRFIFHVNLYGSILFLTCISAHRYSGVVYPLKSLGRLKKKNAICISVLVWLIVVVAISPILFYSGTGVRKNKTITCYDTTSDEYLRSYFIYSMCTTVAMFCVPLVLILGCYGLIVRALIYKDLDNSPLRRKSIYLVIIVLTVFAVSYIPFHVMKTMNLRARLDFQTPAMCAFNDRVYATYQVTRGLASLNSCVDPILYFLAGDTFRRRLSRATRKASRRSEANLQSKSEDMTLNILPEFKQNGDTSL
- assay_details: Antagonist activity at P2Y1 receptor in washed human platelets assessed as 1 uM 2-methylthio-ADP-induced calcium flux by FLIPR assay
- Type: functional
pIC50: −log10 of the molar value.
value_kind: pIC50

a. CC(C)(C)CN1CCC2(CC1)CCN(c1ccccc1NC(=O)Nc1ccc(OC(F)(F)F)cc1)c1ccccc12
b. O=C(Nc1ccc(OC(F)(F)F)cc1)Nc1ccccc1N1CC2(CCN(C(=O)OCc3ccccc3)CC2)c2ccccc21
c. O=C(Nc1ccc(OC(F)(F)F)cc1)Nc1ccccc1N1CC2(CCCCC2)c2ccccc21
d. CC(C)(C)CN1CCC2(CC1)CN(c1ccccc1NC(=O)Nc1ccc(OC(F)(F)F)cc1)c1ccncc12
QUERY: Put these in order: smallest pIC50 first, largest last. Reply with the item labels sorted in the order that was asked for.
RESULT: d, a, b, c
(d: 6.46, a: 8.00, b: 8.23, c: 8.66)

---

- assay_details: Aqueous solubility of the of partial crystalline form of compound in phosphate buffer at pH 6.5
- Type: physicochemical
value_kind: solubility (µg/mL)

# example entries with known answers
* CC(C)CN1CCC2(CC1)CN(c1ccccc1NC(=O)Nc1ccc(OC(F)(F)F)cc1)c1ccccc12 | 7
* CC(C)N1CCC2(CC1)CN(c1ccccc1NC(=O)Nc1ccc(OC(F)(F)F)cc1)c1ccccc12 | 71

A. CC(C)NC(=O)N1CCC2(CC1)CN(c1ccccc1NC(=O)Nc1ccc(OC(F)(F)F)cc1)c1ccccc12
B. O=C(Nc1ccc(OC(F)(F)F)cc1)Nc1ccccc1N1CC2(CCNCC2)c2ccccc21
C. O=C(Nc1ccc(OC(F)(F)F)cc1)Nc1ccccc1N1CC2(CCN(CCO)CC2)c2ccccc21
QUERY: Arrange these compounds by their solubility, starting with the largest number. Reply with the item labels sorted in the order that was asked for.
RESULT: C, B, A
(C: 123 µg/mL, B: 84 µg/mL, A: 1 µg/mL)

---

- target_or_system: L-type calcium channel (Rattus norvegicus, UniProt P22002+P27732+Q02485)
- assay_details: Inhibition of rat L-type calcium channel at 10 uM relative to control
value_kind: inhibition at 10 µM (%)
Entry rule: numbers only, all in %.

QUERY: Supply inhibition at 10 µM value. Item: "CC(C)(C)CN1CCC2(CC1)CN(c1ccccc1NC(=O)Nc1ccc(OC(F)(F)F)cc1)c1ccccc12"
RESULT: 78

---

- assay_details: Metabolic stability in rat liver microsomes assessed as compound remaining after 10 mins
- Assay type: ADME
- condition_parameters: read-out: Stability
value_kind: remaining at 10 min (%)

- CC(C)(C)CN1CCC2(CC1)CN(c1ccccc1NC(=O)Nc1ccc(OC(F)(F)F)cc1)c1cnccc12: 73
- CC(C)(C)CN1CCC2(CC1)CN(c1ccccc1NC(=O)Nc1ccc(OC(F)(F)F)cc1)c1ccccc12: 87
- CC(C)CN1CCC2(CC1)CN(c1ccccc1NC(=O)Nc1ccc(OC(F)(F)F)cc1)c1ccccc12: 84

1. CC(C)(C)CN1CCC2(CC1)CCN(c1ccccc1NC(=O)Nc1ccc(OC(F)(F)F)cc1)c1ccccc12
2. CC1(C)CCN(c2ccccc2NC(=O)Nc2ccc(OC(F)(F)F)cc2)c2ccccc21
QUERY: # min-compare on remaining at 10 min between 1 and 2 The response must carry the label of the picked entry.
RESULT: 2
(2: 6%, 1: 87%)
